Assay: Half life in mouse liver microsomes
Assay type: ADME, microsome
endpoint.name: half-life (min)
# value in min; strip the unit string

Request: // returns reported half-life for input COc1cccc(C2(O)CC(C(F)(F)F)=NN2C(=O)Cc2ccccc2)c1 (stereo unspecified)
Response: 3.3

###

Experiment: Half life in human liver microsomes
Format: ADME, microsome
endpoint.name: half-life (min)
Write it as a number; the unit min goes unstated.

Request: Requested field: half-life. Item: COc1cccc(C2(O)CC(C(F)(F)F)=NN2C(=O)Cc2ccccc2)c1 (stereo unspecified)
Response: 8.2

###

Target: Calcium release-activated calcium channel protein 1 (Homo sapiens)
Sequence (Q96D31 whole entry, looked up): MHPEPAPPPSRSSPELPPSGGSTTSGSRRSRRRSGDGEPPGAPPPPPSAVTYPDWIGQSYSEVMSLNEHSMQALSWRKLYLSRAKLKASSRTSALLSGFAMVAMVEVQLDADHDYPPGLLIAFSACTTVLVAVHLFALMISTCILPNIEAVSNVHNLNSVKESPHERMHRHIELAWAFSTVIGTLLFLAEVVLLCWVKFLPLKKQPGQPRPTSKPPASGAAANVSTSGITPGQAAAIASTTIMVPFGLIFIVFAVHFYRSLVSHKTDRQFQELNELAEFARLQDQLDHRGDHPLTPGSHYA
Assay: Inhibition of […] Orai1-medited store operated calcium entry in human MDA-MB-231 cells at 30 uM pretreated for 15 mins followed by BAPTA addition by PBX dye based FLIPR assay relative to control
Assay type: cell-based
endpoint.name: inhibition
The number alone won't do; follow it with the unit.

Request: Recorded inhibition of CS(=O)(=O)Nc1cccc(C2=NN(C(=O)Cc3ccccc3)C(O)(C(F)(F)F)C2)c1 (centres undefined) , please.
Response: 20%

Request: How about Cc1ccccc1C1=NN(C(=O)Cc2ccccc2)C(O)(C(F)(F)F)C1 (centres undefined) ?
Response: 50%

Request: Also check O=C(Cc1ccccc1)N1N=C(c2cccc(NC(=O)C(F)(F)F)c2)CC1(O)C(F)(F)F (centres undefined)
Response: 60%

Request: Another compound: O=C(Cc1ccccc1)N1N=C(c2cccc(F)c2)CC1(O)C(F)(F)F (centres undefined)
Response: 60%

Numbers sourced from ChEMBL document CHEMBL4118190.
